- Tested System: T1, human IL-17A dimer (human, UniProt Q16552 24-155)
- T1 construct: also called hIL17-A
- T1 sequence (looked up): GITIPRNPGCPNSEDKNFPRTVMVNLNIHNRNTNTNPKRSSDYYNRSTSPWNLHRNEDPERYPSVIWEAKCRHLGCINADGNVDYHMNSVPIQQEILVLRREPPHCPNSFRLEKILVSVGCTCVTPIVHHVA
- Experimental Protocol: binding assay, method analogous to WO 2011/141823
Experimental Readout: Kd (nM)
The reply should be a number in nM, with the unit left off.

Problem: Name the recorded Kd for ACPQDLELCTFLFGDCAXXXXXXK (Ci, Cii and Ciii cyclised with TBMB; six sarcosines (written X) after the C-terminal Ala; fluorescein (Fl) on the C-terminal Lys) [BCY2310] .
Solution: 26.6

Hello, the source for this data is patent US20220024983A1, in case you need it.
